System: OVCAR-4
protocol: NCI tumour cell line growth inhibition, 48 h
Calls of active or inactive are those of the source. Rule as the data show it: active = GI50 up to about 1.1 µM and inactive = higher.
result.type: GI50

Which measured GI50 value corresponds to Cc1ccc([S+](c2ccccc2)c2cc(C)ccc2C)cc1 (stereo unspecified) ?
29.4 µM (inactive)

Which measured GI50 value corresponds to `O=c1[nH]nc(Cc2ccccc2)n1/N=C/c1ccc(/C=N/n2c(Cc3ccccc3)n[nH]c2=O)cc1` ?
> 100 µM (inactive)

Which measured GI50 value corresponds to CC(O)C(NC(=O)C(CS)NC(=O)C(CO)NC(=O)C(CCCCN)NC(=O)C(Cc1c[nH]c2ccccc12)NC(=O)C(Cc1ccc(O)cc1)NC(=O)C(CS)NC(=O)C(N)Cc1ccccc1)C(N)=O (stereo unspecified) ?
8.53 µM (inactive)

Which measured GI50 value corresponds to OC(CCN1CCN(CCOC(c2ccc(F)cc2)c2ccc(F)cc2)CC1)c1ccc(Br)cc1 (stereo unspecified) ?
4.01 µM (inactive)

Which measured GI50 value corresponds to Cc1ccc2c(c1)C=CC(C#N)N2C(=O)Oc1ccccc1 (stereo unspecified) ?
24.7 µM (inactive)

Which measured GI50 value corresponds to Nc1ccc(C(=O)NN2C(=O)C(Cl)C2c2ccc([N+](=O)[O-])cc2)cc1 (stereo unspecified) ?
12.7 µM (inactive)

Which measured GI50 value corresponds to CCN(CC)CCNC(=O)C1COc2ccc(-c3cc(=O)c4ccccc4o3)cc2O1 (stereo unspecified) ?
18.5 µM (inactive)

Which measured GI50 value corresponds to COc1cc(/C=C2\CCC(C)C3C2=NN(C(C)=O)C3c2cc(OC)c(OC)c(OC)c2)cc(OC)c1OC (stereo unspecified) ?
> 100 µM (inactive)

Which measured GI50 value corresponds to `CCCN(CCC)C(=O)c1c(N2CCN(C)CC2)c2cccnc2n2c(C)cnc12` ?
> 100 µM (inactive)

Which measured GI50 value corresponds to CCc1cccc(C(C)C)c1NC(=O)C(=O)C(CC(=O)Nc1ccc(Cl)c(Cl)c1)C(=O)OC (stereo unspecified) ?
> 100 µM (inactive)

Which measured GI50 value corresponds to `Nc1ccccc1C(=O)CCc1c[nH]c2ccccc12` ?
20.3 µM (inactive)

Which measured GI50 value corresponds to `C[P+](c1ccccc1)(c1ccc(Cl)cc1)c1ccc(Cl)cc1` ?
13.2 µM (inactive)

Which measured GI50 value corresponds to O=C(O)C1C(=O)Oc2c(cccc2[N+](=O)[O-])C1O (stereo unspecified) ?
> 100 µM (inactive)

Which measured GI50 value corresponds to `O=c1[nH]c(Br)nc2c(N3CCCCC3)c[nH]c12` ?
> 100 µM (inactive)

Which measured GI50 value corresponds to `CC1(C)[C@@H]2CC[C@@]1(C)CN(CCC[N+](C)(C)C)C2` ?
> 100 µM (inactive)

Which measured GI50 value corresponds to COCC12CCC(OC)C34C5CC6(O)C(OC)CC(OC(C)=O)(C5C6OC(=O)c5ccccc5)C(C(OC)C13)C4N(C)C2 (stereo unspecified) ?
> 100 µM (inactive)

###

Assignment: determine reported GI50 for the given molecules.
System: HOP-92
protocol: NCI tumour cell line growth inhibition, 48 h
Calls of active or inactive are those of the source. Cut-off read from the data, not from the text of the source: active = GI50 up to about 1.1 µM and inactive = higher.

Which measured GI50 value corresponds to `CCNC(=S)N/N=C(\C)c1cccc(C)n1` ?
13.5 µM (inactive)

Which measured GI50 value corresponds to `Cc1cc(=O)oc2cc(OC(=O)N(CCCl)CCCl)ccc12` ?
18.2 µM (inactive)

Which measured GI50 value corresponds to `Cc1nc(-n2nc(-c3ccccc3)cc2-c2ccccc2)sc1C(/C=C/c1ccc([N+](=O)[O-])cc1)=N/NC(=O)c1ccncc1` ?
11.5 µM (inactive)

Which measured GI50 value corresponds to `O=C1c2ccccc2S(=O)(=O)c2c1cccc2[N+](=O)[O-]` ?
4.49 µM (inactive)

Which measured GI50 value corresponds to `CNC(=O)CN(CC(=O)NC)C(=O)NC` ?
> 100 µM (inactive)

Which measured GI50 value corresponds to `COc1ccc(Nc2nc3cc(C(F)(F)F)ccc3n3cccc23)cc1OC` ?
15.7 µM (inactive)

Which measured GI50 value corresponds to `O=[N+]([O-])/C=C/c1ccc2ccccc2c1` ?
6.62 µM (inactive)

Which measured GI50 value corresponds to C[C@]12Cc3cn[nH]c3C(=O)C1CC[C@@H]1C2CC[C@@]2(C)C1CC[C@]2(C)O (stereo not given in full) ?
> 100 µM (inactive)

Which measured GI50 value corresponds to `O=S(=O)([C-]([I+]c1ccccc1)S(=O)(=O)C(F)(F)C(F)(F)C(F)(F)C(F)(F)F)C(F)(F)C(F)(F)C(F)(F)C(F)(F)F` ?
8.77 µM (inactive)

Which measured GI50 value corresponds to Cc1cc2c(cc1Br)C1(C)CCC(C)C1(C)O2 (stereo not given) ?
20.9 µM (inactive)
